# assay.system: gp120 core bound to the 17b antibody
# protocol.notes: Thermodynamic cycle by isothermal titration calorimetry, gp120 core bound to 17b
# applied.conditions: gp120 core bound to the 17b antibody; isothermal titration calorimetry
pKd: −log10 of the molar value.
value.type: pKd

In [3]: df
Out[3]:
                                   molecule  reported_measurement
0  CC1(C)CC(NC(=O)C(=O)Nc2ccc(Cl)cc2)CC(C)(C)N1 [NBD-556]                  5.82

###

# assay.system: gp120 core-17b complex
# protocol.notes: BIAcore analysis
# applied.conditions: data not shown
value.type: Kd (µM)

                               entry_smiles  reported_measurement
0  CC1(C)CC(NC(=O)C(=O)Nc2ccc(Cl)cc2)CC(C)(C)N1                   6.6
